Test system: FB
methodDescription: Euclidean distance of Cell Painting phenotypic profile (signed KS, 77 features) to DMSO centroid (dimensionless distance); 5 or 10 uM (library dependent); higher = stronger phenotypic change vs DMSO (phenoactivity)
measurementContext: 48 h
Counter-ions that a name gives are not always drawn.

{"columns": ["molecule", "Euclidean distance"],
 "data": [
  ["CC(=O)O[C@]1(C(C)=O)CC[C@H]2[C@@H]3C=C(C)C4=CC(=O)CC[C@]4(C)[C@H]3CC[C@@]21C [Megestrol Acetate]", 1.46],
  ["COc1cc(-c2cc(-c3cccc(O)c3)cnc2N)cc(OC)c1OC", 2.23],
  ["Cc1nc(Nc2ncc(C(=O)Nc3c(C)cccc3Cl)s2)cc(N2CCN(CCO)CC2)n1 [Dasatinib hydrochloride]", 3.53],
  ["COc1cc2c(cc1OC)C(=O)C(CC1CCN(Cc3ccccc3)CC1)C2 (configuration not stated)", 0.785],
  ["CO[C@H]1C[C@H](O[C@@H]2/C(C)=C/C[C@@H]3C[C@@H](C[C@]4(CC[C@H](C)[C@@H](C5CCCCC5)O4)O3)OC(=O)[C@@H]3C=C(C)/C(=N/O)[C@H]4OC/C(=C\\C=C\\[C@@H]2C)[C@]43O)O[C@@H](C)[C@@H]1O", 1.24],
  ["Cc1c(Nc2ncccc2C(=O)O)cccc1C(F)(F)F", 0.516],
  ["C=CC(=O)Nc1cccc(Oc2nc(Nc3ccc(N4CCN(C)CC4)cc3)ncc2Cl)c1", 4.15]
]}
